- PROTOCOL_DESCRIPTION: qHTS of pediatric cancer cell lines to identify multiple opportunities for drug repurposing: Primary screen for MG 63 (6-TG R) cells (AID 1347105); also: nearly all actives have a fitted effect of over 50% in size
- EXPERIMENTAL_CONTEXT: MG 63 (6-TG R) viability, CellTiter-Glo, 48 h; series mostly up to 46 µM
- Description: Drug repurposing or repositioning has been offered as a strategy for drug development in oncology programs. This approach has special potential for childhood cancers and other rare or orphan diseases, where the expected return on new drug development has been a disincentive to pharmaceuticals. […] We employed a titration-based paradigm (quantitative high-throughput screening or qHTS), where all compounds were tested at multiple concentrations for their effect on cell viability. […]
Records with an inconclusive call do not appear. Active and inactive are the calls of the source. Calls follow the shape of the dose curve; as a rule, active = well fitted cell-killing curve with a large enough effect; inconclusive = small, poorly fitted or top-dose-only effect; inactive = no such curve, though single readings can be large or run the other way.
Pick from label 1 for active, label 0 for inactive when you respond.

See these solved cases before continuing.
* O=C(O)C1(C(=O)O)CCC1.[NH2-].[NH2-].[Pt+2] | label 0
* O=C(O)CCNC(=O)c1ccccc1 | label 0

Request: Dear all, I need the recorded test outcome for O=C(O)P(=O)(O)O , thank you.
Response: label 0

Request: Record lookup: outcome of this test for O=C(CN1CCN(Cc2ccc3c(c2)OCO3)CC1)N1c2ccccc2Sc2ccccc21 ?
Response: label 0

Request: Name the outcome recorded for O=c1[nH]c(=O)n([C@H]2C[C@H](O)[C@@H](CO)O2)cc1F in the assay.
Response: label 0

Request: Could you check what this test reported for O=C(O)c1ccc(S(=O)(=O)N(Cl)Cl)cc1 ?
Response: label 0

Request: Entry O=C(NC1CCN(CCc2c[nH]c3ccccc23)CC1)c1ccccc1 : call = ?
Response: label 0

Request: Identify the outcome logged in this assay for the compound shown: COc1cc(C)nc(-n2nc(C)cc2OC)n1
Response: label 0

Request: Entry O=C(NCCc1c[nH]c2ccccc12)c1cccnc1 : call = ?
Response: label 0

Request: Lab log entry: C=CCN1CCc2nc(N)sc2CC1 — outcome as called in the assay?
Response: label 0

Request: Hi, do you know how CC(C)(C)NCC(O)COc1cccc2c1C[C@H](O)[C@H](O)C2 (some centres undefined) came out in this test?
Response: label 0

Request: Could you kindly confirm the outcome this assay logged for CCCN(CCC)S(=O)(=O)c1ccc(C(=O)O)cc1 ?
Response: label 0
